Assay Text: Determination of solubility in synthetic sebum
Format: physicochemical
Conditions: oil or lipid, thermodynamic from solid, 32° C., agitated overnight, HPLC, read-out: Solubility in Liquid Synthetic Sebum
Assay Endpoint: solubility
Write the numeric value and append its unit.

Q: Form field: reported solubility of CCCCCCCCCCCCCCOc1ccc(C(=O)OC(C)C)o1 [Compound B]
Ans: 43 mg/mL

Q: # repeat for CCCCCCCCCCCCCCOc1ccc(C(=O)OCC(F)(F)F)o1 [Compound A]
Ans: 28.9 mg/mL

Q: # repeat for CCCCCCCCCCCCCCOc1ccc(C(=O)O)o1 [TOFA, 5-(tetradecyloxy)-2-furancarboxylic acid]
Ans: 1.5 mg/mL

Q: # repeat for CCCCCCCCCCCCCCOc1ccc(C(=O)OCc2oc(=O)oc2C)o1 [Compound C]
Ans: 13.6 mg/mL

FYI, the data here is from patent US9434718B2.
